Value source: patent US12686680B2

- method description: Solubility determination of solid forms of Compound 1 in solvents (Example 52)
- Type: physicochemical
- details: 50 mM PB pH 2
Where a name gives a salt, the structure may show the parent alone.
Kindly supply the reported Solubility values for the records listed here.
Numbers only here, please. The scale is mg/mL FB.

Lab note: CCCN(Cc1ccc(-c2csc(N(C)C)n2)cc1)c1cc(C)nc2c(-c3cnc(N(C)C)cc3C)c(C)nn12 [Compound 1-4 (Maleate)] gave Solubility of 3.9

Lab note: CCCN(Cc1ccc(-c2csc(N(C)C)n2)cc1)c1cc(C)nc2c(-c3cnc(N(C)C)cc3C)c(C)nn12 [Compound 1-1 (FB)] gave Solubility of 6.5

Lab note: CCCN(Cc1ccc(-c2csc(N(C)C)n2)cc1)c1cc(C)nc2c(-c3cnc(N(C)C)cc3C)c(C)nn12 [Compound 1-2 (FB)] gave Solubility of 3.3

Lab note: CCCN(Cc1ccc(-c2csc(N(C)C)n2)cc1)c1cc(C)nc2c(-c3cnc(N(C)C)cc3C)c(C)nn12 [Compound 1-3 (HCl)] gave Solubility of 4.4

Lab note: CCCN(Cc1ccc(-c2csc(N(C)C)n2)cc1)c1cc(C)nc2c(-c3cnc(N(C)C)cc3C)c(C)nn12 [Compound 1-5 (Mesylate)] gave Solubility of 4.7

----------
Kindly supply the reported Solubility values for the records listed here.
- method description: Solubility determination of solid forms of Compound 1 in solvents (Example 52)
- Format: physicochemical
- details: 100% H2O
Where a name gives a salt, the structure may show the parent alone.
Numbers only here, please. The scale is mg/mL FB.

Lab note: CCCN(Cc1ccc(-c2csc(N(C)C)n2)cc1)c1cc(C)nc2c(-c3cnc(N(C)C)cc3C)c(C)nn12 [Compound 1-5 (Mesylate)] gave Solubility of 0.8

Lab note: CCCN(Cc1ccc(-c2csc(N(C)C)n2)cc1)c1cc(C)nc2c(-c3cnc(N(C)C)cc3C)c(C)nn12 [Compound 1-1 (FB)] gave Solubility of 0

Lab note: CCCN(Cc1ccc(-c2csc(N(C)C)n2)cc1)c1cc(C)nc2c(-c3cnc(N(C)C)cc3C)c(C)nn12 [Compound 1-4 (Maleate)] gave Solubility of 0

Lab note: CCCN(Cc1ccc(-c2csc(N(C)C)n2)cc1)c1cc(C)nc2c(-c3cnc(N(C)C)cc3C)c(C)nn12 [Compound 1-3 (HCl)] gave Solubility of 0.4

Lab note: CCCN(Cc1ccc(-c2csc(N(C)C)n2)cc1)c1cc(C)nc2c(-c3cnc(N(C)C)cc3C)c(C)nn12 [Compound 1-2 (FB)] gave Solubility of 0

----------
- method description: Solubility determination of solid forms of Compound 1 in solvents (Example 52)
- Assay type: physicochemical
- details: 50 mM CB pH 6
Where a name gives a salt, the structure may show the parent alone.
endpoint name: Solubility

Example cases with answers are listed next.
CCCN(Cc1ccc(-c2csc(N(C)C)n2)cc1)c1cc(C)nc2c(-c3cnc(N(C)C)cc3C)c(C)nn12 [Compound 1-1 (FB)]: 0 mg/mL FB
CCCN(Cc1ccc(-c2csc(N(C)C)n2)cc1)c1cc(C)nc2c(-c3cnc(N(C)C)cc3C)c(C)nn12 [Compound 1-5 (Mesylate)]: 0 mg/mL FB
CCCN(Cc1ccc(-c2csc(N(C)C)n2)cc1)c1cc(C)nc2c(-c3cnc(N(C)C)cc3C)c(C)nn12 [Compound 1-3 (HCl)]: 0 mg/mL FB
CCCN(Cc1ccc(-c2csc(N(C)C)n2)cc1)c1cc(C)nc2c(-c3cnc(N(C)C)cc3C)c(C)nn12 [Compound 1-2 (FB)]: 0 mg/mL FB

Lab note: CCCN(Cc1ccc(-c2csc(N(C)C)n2)cc1)c1cc(C)nc2c(-c3cnc(N(C)C)cc3C)c(C)nn12 [Compound 1-4 (Maleate)] gave Solubility of Below

----------
Kindly supply the reported k1 values for the records listed here.
- assayed target: CRF1 receptor (Homo sapiens, UniProt P34998)
- Sequence (P34998 24-415): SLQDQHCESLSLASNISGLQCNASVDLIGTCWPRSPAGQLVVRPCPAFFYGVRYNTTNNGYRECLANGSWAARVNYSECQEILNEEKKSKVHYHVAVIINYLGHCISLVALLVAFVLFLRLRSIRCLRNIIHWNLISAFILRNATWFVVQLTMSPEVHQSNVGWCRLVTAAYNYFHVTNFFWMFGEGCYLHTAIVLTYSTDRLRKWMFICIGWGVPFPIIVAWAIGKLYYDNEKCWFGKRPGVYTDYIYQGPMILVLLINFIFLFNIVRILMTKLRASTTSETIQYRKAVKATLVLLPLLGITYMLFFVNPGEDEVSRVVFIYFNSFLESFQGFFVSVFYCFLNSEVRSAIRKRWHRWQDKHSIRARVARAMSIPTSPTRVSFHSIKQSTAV
- method description: CRF1 receptor binding kinetics (association/dissociation rate constants, method of Fleck et al.)
- details: association rate constant

Lab note: CCCN(Cc1ccc(-c2ccccn2)cc1)c1cc(C)nc2c(-c3cnc(N(C)C)cc3C)c(C)nn12 [Compound 3] gave k1 of 2.9 ± 0.92 10^6M^−1min^−1

Lab note: CCCN(Cc1ccc(-c2ccccc2)cc1)c1cc(C)nc2c(-c3cnc(N(C)C)cc3C)c(C)nn12 [Compound 8] gave k1 of 9.1 ± 4.1 10^6M^−1min^−1

Lab note: CCCN(Cc1ccc(-n2cccn2)cc1)c1cc(C)nc2c(-c3cnc(N(C)C)cc3C)c(C)nn12 [Compound 9] gave k1 of 3.5 ± 1.1 10^6M^−1min^−1

Lab note: CCCN(Cc1ccc(-c2cccnc2)cc1)c1cc(C)nc2c(-c3cnc(N(C)C)cc3C)c(C)nn12 [Compound 2] gave k1 of 5.3 ± 0.78 10^6M^−1min^−1

Lab note: CCCN(Cc1ccc(-c2csc(NC)n2)cc1)c1cc(C)nc2c(-c3cnc(N(C)C)cc3C)c(C)nn12 [Compound 11] gave k1 of 2.4 +/− 0.2 10^6M^−1min^−1

Lab note: CCCN(Cc1ccc(-n2cncn2)cc1)c1cc(C)nc2c(-c3cnc(N(C)C)cc3C)c(C)nn12 [Compound 10] gave k1 of 2.2 10^6M^−1min^−1

Lab note: CCCN(Cc1ccc(-c2csc(N(C)C)n2)cc1)c1cc(C)nc2c(-c3cnc(N(C)C)cc3C)c(C)nn12 [Compound 1] gave k1 of 4.9 ± 1.7 10^6M^−1min^−1

----------
Kindly supply the reported Solubility values for the records listed here.
- method description: Solubility determination of solid forms of Compound 1 in solvents (Example 52)
- Assay type: physicochemical
- details: 50 mM CB pH 4
Structures can show the parent of a compound that is named as a salt.
Numbers only here, please. The scale is mg/mL FB.

Lab note: CCCN(Cc1ccc(-c2csc(N(C)C)n2)cc1)c1cc(C)nc2c(-c3cnc(N(C)C)cc3C)c(C)nn12 [Compound 1-1 (FB)] gave Solubility of 0

Lab note: CCCN(Cc1ccc(-c2csc(N(C)C)n2)cc1)c1cc(C)nc2c(-c3cnc(N(C)C)cc3C)c(C)nn12 [Compound 1-3 (HCl)] gave Solubility of 0

Lab note: CCCN(Cc1ccc(-c2csc(N(C)C)n2)cc1)c1cc(C)nc2c(-c3cnc(N(C)C)cc3C)c(C)nn12 [Compound 1-2 (FB)] gave Solubility of 0

Lab note: CCCN(Cc1ccc(-c2csc(N(C)C)n2)cc1)c1cc(C)nc2c(-c3cnc(N(C)C)cc3C)c(C)nn12 [Compound 1-5 (Mesylate)] gave Solubility of 0.1

Lab note: CCCN(Cc1ccc(-c2csc(N(C)C)n2)cc1)c1cc(C)nc2c(-c3cnc(N(C)C)cc3C)c(C)nn12 [Compound 1-4 (Maleate)] gave Solubility of 0

----------
Kindly supply the reported Solubility values for the records listed here.
- method description: Solubility determination of solid forms of Compound 1 in solvents (Example 52)
- Format: physicochemical
- details: 50 mM PB pH 8
Counter-ions that a name gives are not always drawn.
Numbers only here, please. The scale is mg/mL FB.

Lab note: CCCN(Cc1ccc(-c2csc(N(C)C)n2)cc1)c1cc(C)nc2c(-c3cnc(N(C)C)cc3C)c(C)nn12 [Compound 1-5 (Mesylate)] gave Solubility of 0

Lab note: CCCN(Cc1ccc(-c2csc(N(C)C)n2)cc1)c1cc(C)nc2c(-c3cnc(N(C)C)cc3C)c(C)nn12 [Compound 1-2 (FB)] gave Solubility of 0

Lab note: CCCN(Cc1ccc(-c2csc(N(C)C)n2)cc1)c1cc(C)nc2c(-c3cnc(N(C)C)cc3C)c(C)nn12 [Compound 1-3 (HCl)] gave Solubility of 0

----------
- method description: Solubility determination of solid forms of Compound 1 in solvents (Example 52)
- Assay type: physicochemical
- details: 50 mM CB pH 3
Where a name gives a salt, the structure may show the parent alone.
Kindly supply the reported Solubility values for the records listed here.
Numbers only here, please. The scale is mg/mL FB.

Lab note: CCCN(Cc1ccc(-c2csc(N(C)C)n2)cc1)c1cc(C)nc2c(-c3cnc(N(C)C)cc3C)c(C)nn12 [Compound 1-3 (HCl)] gave Solubility of 0.8

Lab note: CCCN(Cc1ccc(-c2csc(N(C)C)n2)cc1)c1cc(C)nc2c(-c3cnc(N(C)C)cc3C)c(C)nn12 [Compound 1-1 (FB)] gave Solubility of 1.7

Lab note: CCCN(Cc1ccc(-c2csc(N(C)C)n2)cc1)c1cc(C)nc2c(-c3cnc(N(C)C)cc3C)c(C)nn12 [Compound 1-5 (Mesylate)] gave Solubility of 1.0

Lab note: CCCN(Cc1ccc(-c2csc(N(C)C)n2)cc1)c1cc(C)nc2c(-c3cnc(N(C)C)cc3C)c(C)nn12 [Compound 1-4 (Maleate)] gave Solubility of 0.3

Lab note: CCCN(Cc1ccc(-c2csc(N(C)C)n2)cc1)c1cc(C)nc2c(-c3cnc(N(C)C)cc3C)c(C)nn12 [Compound 1-2 (FB)] gave Solubility of 1.7
